# System: BDF1 mice, P388 leukemia ip, median survival T/C
# PROTOCOL_DESCRIPTION: NCI In Vivo Anticancer Drug Screen. Data for tumor model P388 Leukemia (intraperitoneal) in B6D2F1 (BDF1) mice
# CONDITION_DETAILS: endpoint: median survival time; dose: 200.0 mg/kg/injection; schedule: Q04DX003 (ip); vehicle: saline; higher = longer survival
Inconclusive results and toxic doses are left out.
RECORDED_METRIC: T/C

- SMILES_STRING: "O=P(N1CC1)(N1CC1)N1CCc2ccccc21"
  T/C: "96 % of control"
- SMILES_STRING: "OCC1(O)CCC1"
  T/C: "103 % of control"

GET /value?item= `CC(C)(C)OC(=O)NO` &field=T/C returns 95 % of control

The measured T/C associated with `Nc1ccc(C(=O)O)c([N+](=O)[O-])c1` reads 112 % of control

The molecule identified as `CN(N)c1cc(=O)n(C)c(=O)n1C` registered its T/C at 103 % of control

// sample `O=Cc1c[nH]c(=O)[nH]c1=O` , its T/C was 99 % of control

The value of T/C measured for the molecule `O=C1CC=C(Nc2ccc(Br)cc2)C(=O)O1` turned out to be 91 % of control

* * *

# System: BDF1 mice, P388 leukemia ip, median survival T/C
# PROTOCOL_DESCRIPTION: NCI In Vivo Anticancer Drug Screen. Data for tumor model P388 Leukemia (intraperitoneal) in B6D2F1 (BDF1) mice
# CONDITION_DETAILS: endpoint: median survival time; dose: 100.0 mg/kg/injection; schedule: Q04DX003 (ip); vehicle: saline with Tween-80; higher = longer survival
Toxic doses and inconclusive results are not listed.
RECORDED_METRIC: T/C

- MOLECULE: "FC(F)(F)c1nc2nc(Br)c(Br)nc2[nH]1"
  SYSTEM_TESTED: "BDF1 mice, P388 leukemia ip, median survival T/C"
  T/C: "87 % of control"

Now take the following molecule into account.
Tested on BDF1 mice, P388 leukemia ip, median survival T/C: `Cc1ccc(Nc2ccc(Nc3ccc(C)cc3)c3c2C(=O)c2ccccc2C3=O)cc1` . Observed T/C: 88 % of control

* * *

# Tested on: BDF1 mice, P388 leukemia ip, median survival T/C
# PROTOCOL_DESCRIPTION: NCI In Vivo Anticancer Drug Screen. Data for tumor model P388 Leukemia (intraperitoneal) in B6D2F1 (BDF1) mice
# CONDITION_DETAILS: endpoint: median survival time; dose: 25.0 mg/kg/injection; schedule: Q04DX003 (ip); vehicle: saline with Tween-80
Toxic doses and inconclusive results are not listed. How the source made its calls: active means survival T/C of 150% or more; inactive means T/C below 125% in these data.
Write down one outcome, taken from active, inactive

See these solved cases before continuing.
- SMILES_STRING: "C1CSCCO1.[Cu+2].[O-][Cl+3]([O-])([O-])O"
  GROUP_LABEL: "inactive"
- SMILES_STRING: "Nc1nc(-c2ccccc2)cc2ccccc12"
  GROUP_LABEL: "inactive"
- SMILES_STRING: "CCCOC1=C(N2CC2)C(=O)C(OCCC)=C(N2CC2)C1=O"
  GROUP_LABEL: "active"

Switching to the query record.
[ask] Assay outcome for `COc1ccc(C[n+]2cc([O-])on2)cc1` : what was it?
[reply] inactive

* * *

# Tested on: BDF1 mice, P388 leukemia ip, median survival T/C
# PROTOCOL_DESCRIPTION: NCI In Vivo Anticancer Drug Screen. Data for tumor model P388 Leukemia (intraperitoneal) in B6D2F1 (BDF1) mice
# CONDITION_DETAILS: endpoint: median survival time; dose: 400.0 mg/kg/injection; schedule: Q04DX003 (ip); vehicle: saline with Tween-80; higher = longer survival
Toxic doses and inconclusive results are not listed.
RECORDED_METRIC: T/C

The compound COC1CC(N=[N+]=[N-])C(OC(=O)c2ccccc2)C(C)O1 (configuration not stated) showed T/C equal to 106 % of control

# compound `O[C@@H]1CCCC[C@@H]1n1cnc2c(=S)nc[nH]c21` ; its T/C = 100 % of control

Query `CCOC(=O)C(=CN1CCCCCC1)C(=O)OCC` yields T/C of 113 % of control

// sample `COc1cc(OC)cc(C(=O)Br)c1` , its T/C was 95 % of control

Form: compound = `CC(=O)OCC(=O)[C@@]12OC(C)(C)O[C@@H]1C[C@H]1[C@@H]3CC(C=O)=C4C=C(OCCCl)CC[C@]4(C)[C@@]3(F)[C@@H](O)C[C@@]12C` ; T/C = 100 % of control

In plain terms, `Ic1ncnc2nc[nH]c12` has a documented T/C of 95 % of control

Documented T/C of `COc1ccc(CCNC(=O)CCN2C(=O)c3ccccc3C2=O)cc1OC` : 100 % of control

T/C in this record for `Cc1ccc(C(=O)/C=C\c2ccccc2)cc1` : 103 % of control

// T/C lookup, compound = CSc1ncc2ncn(C3OC(CO)C(O)C3O)c2n1 (configuration not stated) , result: 100 % of control

Measured T/C, `CC(=O)OCCN1c2ccccc2Sc2cnccc21` : 95 % of control

* * *

# Test system: BDF1 mice, P388 leukemia ip, median survival T/C
# PROTOCOL_DESCRIPTION: NCI In Vivo Anticancer Drug Screen. Data for tumor model P388 Leukemia (intraperitoneal) in B6D2F1 (BDF1) mice
# CONDITION_DETAILS: endpoint: median survival time; dose: 12.5 mg/kg/injection; schedule: Q01DX009 (ip); vehicle: Klucel (hydroxypropylcellulose) (HPC); higher = longer survival
# Description: The antitumor activity of compounds was measured in mice bearing transplantable tumors. Survival or tumor size were measured and the results are expressed as the measurement made in the treated group (T) divided by the measurement made in the vehicle treated control group (C). The tumor model used in this assay is P388 Leukemia (intraperitoneal) in B6D2F1 (BDF1) mice
Inconclusive results and toxic doses are left out.
RECORDED_METRIC: T/C

- COMPOUND: "CCN(CC)c1nc(NC2CCCCC2)c2nc(N(CC)CC)nc(NC3CCCCC3)c2n1"
  SYSTEM_TESTED: "BDF1 mice, P388 leukemia ip, median survival T/C"
  MEASURED_RESULT: "99 % of control"
- COMPOUND: "CC(=O)OCC(=O)[C@@]12OC(C)(C)O[C@@H]1C[C@H]1[C@@H]3CC(C=O)=C4C=C(OCCCl)CC[C@]4(C)[C@@]3(F)[C@@H](O)C[C@@]12C"
  SYSTEM_TESTED: "BDF1 mice, P388 leukemia ip, median survival T/C"
  MEASURED_RESULT: "124 % of control"
- COMPOUND: "O=C1C(Br)=CC(=NCl)C=C1Br"
  SYSTEM_TESTED: "BDF1 mice, P388 leukemia ip, median survival T/C"
  MEASURED_RESULT: "120 % of control"
- COMPOUND: "Nc1nc(N)c2cc(NCc3ccccc3Cl)ccc2n1"
  SYSTEM_TESTED: "BDF1 mice, P388 leukemia ip, median survival T/C"
  MEASURED_RESULT: "110 % of control"
- COMPOUND: "COc1cc2cc3c4cc(OC)c(OC)cc4cc[n+]3c(C)c2cc1OC"
  SYSTEM_TESTED: "BDF1 mice, P388 leukemia ip, median survival T/C"
  MEASURED_RESULT: "105 % of control"

Quick note, T/C for `O=C(NN(Cn1c(=S)sc2ccccc21)Cn1c(=S)sc2ccccc21)c1ccncc1` landed at 120 % of control

Lab book: T/C of `NC(=O)c1cn[nH]c1N` noted as 95 % of control

// T/C lookup, compound = COc1ccc2c(c1OC)C1(CCN(C)C)CC(=O)CCC1C=C2 (stereo not given) , result: 105 % of control

What the record says about `CN(C)c1ccc(C=O)c(Br)c1` : T/C is 109 % of control

For this compound ( `Nc1cccc2c1C(=O)c1cccc(NC(=O)c3ccccc3)c1C2=O` ), measured T/C is 109 % of control

* * *

# Test system: BDF1 mice, P388 leukemia ip, median survival T/C
# PROTOCOL_DESCRIPTION: NCI In Vivo Anticancer Drug Screen. Data for tumor model P388 Leukemia (intraperitoneal) in B6D2F1 (BDF1) mice
# CONDITION_DETAILS: endpoint: median survival time; dose: 200.0 mg/kg/injection; schedule: Q04DX003 (ip); vehicle: Klucel (hydroxypropylcellulose) (HPC); higher = longer survival
Toxic doses and inconclusive results are not listed.
RECORDED_METRIC: T/C

- COMPOUND: "O=C(NNC(=O)OCc1ccccc1)OCc1ccccc1"
  MEASURED_RESULT: "109 % of control"
- COMPOUND: "NC(=O)c1cn[nH]c1N"
  MEASURED_RESULT: "100 % of control"
- COMPOUND: "O=c1oc2cc(O)ccc2c2c1CCCC2"
  MEASURED_RESULT: "95 % of control"
- COMPOUND: "CCOC(=O)c1ccc(=O)n(C(C)C)c1"
  MEASURED_RESULT: "90 % of control"
- COMPOUND: "C[C@]12CC[C@@H]3c4ccc(O)cc4CC[C@H]3[C@@H]1C[C@H](O)C2"
  MEASURED_RESULT: "100 % of control"
- COMPOUND: "Brc1csc2ncccc12"
  MEASURED_RESULT: "109 % of control"

# compound `Cc1ccc(C)c(NC(=O)c2ccccc2N)c1` ; its T/C = 104 % of control

The reported value for `N#CC(C#N)=Cc1ccc(C=C(C#N)C#N)cc1` in terms of T/C is 104 % of control

Recorded result, `CCN(CC)C1=C(N(CC)CC)C(N(CC)CC)=C(N(CC)CC)C1=O.[C-]#[O+].[C-]#[O+].[C-]#[O+].[Fe]` , T/C: 91 % of control

Just so you know, measured T/C for `COc1c(Br)cc(Br)cc1Br` came out at 100 % of control

For this compound ( `S=C(NNC(=S)Nc1ccc(Cl)cc1)NNc1ccccc1` ), measured T/C is 100 % of control

Item: `CN(C)c1ccc(/C=C/c2nc3ccccc3o2)cc1` | T/C: 90 % of control

The reported value for `CCOc1cc(-c2nccc3cc(OC)c(OC)cc23)cc(OCC)c1OCC` in terms of T/C is 100 % of control

The reported value for COc1ccc(C(C(N)=O)N2CCCCC2)cc1 (configuration not stated) in terms of T/C is 90 % of control

Origin of measurements: PubChem BioAssay AID328
